Tested on: Pseudomonas aeruginosa
Test: Antibacterial activity against Pseudomonas aeruginosa 19-5 assessed as inhibition of bacterial growth measured after 18 to 20 hrs by broth microdilution method
Assay type: functional
Details: time 18-20 hrs
observed-property: MIC (µg/mL)
Give bare numbers, in µg/mL.

Ask | Data request, read-out MIC, for Cc1nc(-c2ccc(CSSC3CCCC3)cc2)ncc1C(=O)N[C@@H](CCN)C(=O)N(C)[C@@H]1C(=O)N[C@@H](C)C(=O)N[C@H](C(=O)NCC#N)Cc2ccc(OCCN)c(c2)-c2cc1ccc2OCCN.O=C(O)C(F)(F)F.O=C(O)C(F)(F)F.O=C(O)C(F)(F)F.O=C(O)C(F)(F)F
Reply | 4

* * *

Test system: Klebsiella pneumoniae
Assay: Antibacterial activity against Klebsiella pneumoniae 15-1 assessed as inhibition of bacterial growth measured after 18 to 20 hrs by broth microdilution method
Assay type: functional
Details: time 18-20 hrs
observed-property: MIC (µg/mL)
Give bare numbers, in µg/mL.

Some compounds with known MIC results, for comparison:
{"columns": ["item-smiles", "unit-name", "result-value"],
 "data": [
  ["Cc1nc(-c2ccc(CSSC(C)(C)C)cc2)ccc1C(=O)N[C@@H](CCN)C(=O)N(C)[C@@H]1C(=O)N[C@@H](C)C(=O)N[C@H](C(=O)NCC#N)Cc2ccc(OCCN)c(c2)-c2cc1ccc2OCCN.O=C(O)C(F)(F)F.O=C(O)C(F)(F)F.O=C(O)C(F)(F)F.O=C(O)C(F)(F)F", "µg/mL", 0.125],
  ["Cc1nc(-c2ccc(SSC(C)C)cc2)ncc1C(=O)N[C@@H](CCN)C(=O)N(C)[C@@H]1C(=O)N[C@@H](C)C(=O)N[C@H](C(=O)NCC#N)Cc2ccc(OCCN)c(c2)-c2cc1ccc2OCCN.O=C(O)C(F)(F)F.O=C(O)C(F)(F)F.O=C(O)C(F)(F)F.O=C(O)C(F)(F)F", "µg/mL", 0.06],
  ["Cc1nc(-c2ccc(CSSC3CCC3)cc2)ncc1C(=O)N[C@@H](CCN)C(=O)N(C)[C@@H]1C(=O)N[C@@H](C)C(=O)N[C@H](C(=O)NCC#N)Cc2ccc(OCCN)c(c2)-c2cc1ccc2OCCN.O=C(O)C(F)(F)F.O=C(O)C(F)(F)F.O=C(O)C(F)(F)F.O=C(O)C(F)(F)F", "µg/mL", 0.125]
]}

Answer for every listed entry: what is its MIC? The entries follow.
1. Cc1nc(-c2ccc(C(C)(C)C)cc2)ncc1C(=O)N[C@@H](CCN)C(=O)N(C)[C@@H]1C(=O)N[C@@H](C)C(=O)N[C@H](C(=O)NOCC#N)Cc2ccc(OCCN)c(c2)-c2cc1ccc2OCCN.Cl.Cl.Cl.Cl
2. CCSSc1ccc(-c2ncc(C(=O)N[C@@H](CCN)C(=O)N(C)[C@@H]3C(=O)N[C@@H](C)C(=O)N[C@H](C(=O)NCC#N)Cc4ccc(OCCN)c(c4)-c4cc3ccc4OCCN)c(C)n2)cc1.O=C(O)C(F)(F)F.O=C(O)C(F)(F)F.O=C(O)C(F)(F)F.O=C(O)C(F)(F)F

Reply |
0.5
0.06

* * *

Test system: Klebsiella pneumoniae
Assay: Antibacterial activity against Klebsiella pneumoniae 15-5 assessed as inhibition of bacterial growth measured after 18 to 20 hrs by broth microdilution method
Format: functional
Conditions: time 18-20 hrs
observed-property: MIC (µg/mL)
Give bare numbers, in µg/mL.

Ask | Data request, read-out MIC, for Cc1cc(-c2ccc(CSSC(C)(C)C)cc2)ncc1C(=O)N[C@@H](CCN)C(=O)N(C)[C@@H]1C(=O)N[C@@H](C)C(=O)N[C@H](C(=O)NCC#N)Cc2ccc(OCCN)c(c2)-c2cc1ccc2OCCN.O=C(O)C(F)(F)F.O=C(O)C(F)(F)F.O=C(O)C(F)(F)F.O=C(O)C(F)(F)F
Reply | 0.25

* * *

For each entry below, report its MIC value.
Test system: Klebsiella pneumoniae
Test: Antibacterial activity against Klebsiella pneumoniae 15-5 assessed as inhibition of bacterial growth measured after 18 to 20 hrs by broth microdilution method
Type: functional
Details: time 18-20 hrs
Numbers only, in µg/mL.

{"columns": ["item-smiles", "target-of-assay", "MIC (µg/mL)"],
 "data": [
  ["Cc1nc(-c2ccc(C(C)(C)C)cc2)ncc1C(=O)N[C@@H](CCN)C(=O)N(C)[C@@H]1C(=O)N[C@@H](C)C(=O)N[C@H](C(=O)NCC#N)c2ccc(OCCN)c(c2)-c2cc1ccc2OCCN.Cl.Cl.Cl.Cl", "Klebsiella pneumoniae", 64]
]}

Answer for every listed entry: what is its MIC? The entries follow.
1. Cc1cc(-c2ncc(C(=O)N[C@@H](CCN)C(=O)N(C)[C@@H]3C(=O)N[C@@H](C)C(=O)N[C@H](C(=O)NCC#N)Cc4ccc(OCCN)c(c4)-c4cc3ccc4OCCN)c(C)n2)ccc1CSSC(C)(C)C.O=C(O)C(F)(F)F.O=C(O)C(F)(F)F.O=C(O)C(F)(F)F.O=C(O)C(F)(F)F
2. CSSCc1ccc(-c2ncc(C(=O)N[C@@H](CCN)C(=O)N(C)[C@@H]3C(=O)N[C@@H](C)C(=O)N[C@H](C(=O)NCC#N)Cc4ccc(OCCN)c(c4)-c4cc3ccc4OCCN)c(C)n2)cc1.O=C(O)C(F)(F)F.O=C(O)C(F)(F)F.O=C(O)C(F)(F)F.O=C(O)C(F)(F)F
3. Cc1nc(-c2ccc(SSC(C)C)cc2)ncc1C(=O)N[C@@H](CCN)C(=O)N(C)[C@@H]1C(=O)N[C@@H](C)C(=O)N[C@H](C(=O)NCC#N)Cc2ccc(OCCN)c(c2)-c2cc1ccc2OCCN.O=C(O)C(F)(F)F.O=C(O)C(F)(F)F.O=C(O)C(F)(F)F.O=C(O)C(F)(F)F

Reply |
[0.25, 0.5, 0.06]

* * *

Test: Volume of distribution at steady state in Sprague-Dawley rat at 10 mg/kg, iv measured upto 24 hrs LC-MS/MS analysis
Format: ADME, organism-based
Conditions: in vivo, read-out: Vdss
# Vd >= 0.3 L/kg gives criterion met, anything below gives criterion not met

{"columns": ["item-smiles", "label-value"],
 "data": [
  ["Cc1nc(-c2ccc(CSSC(C)(C)C)cc2)ncc1C(=O)N[C@@H](CCN)C(=O)N(C)[C@@H]1C(=O)N[C@@H](C)C(=O)N[C@H](C(=O)NCC#N)Cc2ccc(OCCN)c(c2)-c2cc1ccc2OCCN", "criterion met"],
  ["CCCCSSCc1ccc(-c2ncc(C(=O)N[C@@H](CCN)C(=O)N(C)[C@@H]3C(=O)N[C@@H](C)C(=O)N[C@H](C(=O)NCC#N)Cc4ccc(OCCN)c(c4)-c4cc3ccc4OCCN)c(C)n2)cc1", "criterion not met"],
  ["Cc1nc(-c2ccc(C(C)(C)C)cc2)ncc1C(=O)N[C@@H](CCN)C(=O)N(C)[C@@H]1C(=O)N[C@@H](C)C(=O)N[C@H](C(=O)NCC#N)Cc2ccc(OCCN)c(c2)-c2cc1ccc2OCCN.Cl.Cl.Cl.Cl", "criterion met"],
  ["CCCSSCc1ccc(-c2ncc(C(=O)N[C@@H](CCN)C(=O)N(C)[C@@H]3C(=O)N[C@@H](C)C(=O)N[C@H](C(=O)NCC#N)Cc4ccc(OCCN)c(c4)-c4cc3ccc4OCCN)c(C)n2)cc1", "criterion not met"]
]}

Here is another molecule to look at.
Ask | Would you say Cc1nc(-c2ccc(SSC(C)(C)C)cc2)ncc1C(=O)N[C@@H](CCN)C(=O)N(C)[C@@H]1C(=O)N[C@@H](C)C(=O)N[C@H](C(=O)NCC#N)Cc2ccc(OCCN)c(c2)-c2cc1ccc2OCCN shows Vd at minimum 0.3 L/kg?
Reply | criterion not met

* * *

Test system: Klebsiella pneumoniae
Assay: Antibacterial activity against Klebsiella pneumoniae 15-1 assessed as inhibition of bacterial growth measured after 18 to 20 hrs by broth microdilution method
Format: functional
Settings: time 18-20 hrs
For each entry below, report its MIC value.
Answers are plain numbers, in µg/mL.

{"columns": ["item-smiles", "MIC [µg/mL]"],
 "data": [
  ["Cc1nc(-c2ccc(C3SCCS3)cc2)ncc1C(=O)N[C@@H](CCN)C(=O)N(C)[C@@H]1C(=O)N[C@@H](C)C(=O)N[C@H](C(=O)NCC#N)Cc2ccc(OCCN)c(c2)-c2cc1ccc2OCCN.O=C(O)C(F)(F)F.O=C(O)C(F)(F)F.O=C(O)C(F)(F)F.O=C(O)C(F)(F)F", 0.25],
  ["Cc1nc(-c2ccc(C(C)(C)C)cc2)ncc1C(=O)N[C@@H](CCN)C(=O)N(C)[C@@H]1C(=O)N[C@@H](C)C(=O)N[C@H](C(=O)NN(C)CC#N)Cc2ccc(OCCN)c(c2)-c2cc1ccc2OCCN.Cl.Cl.Cl.Cl", 8],
  ["C[C@@H]1NC(=O)[C@@H](N(C)C(=O)[C@H](CCN)NC(=O)c2cnc(-c3ccc(CSSC(C)(C)C)cc3)cc2Cl)c2ccc(OCCN)c(c2)-c2cc(ccc2OCCN)C[C@@H](C(=O)NCC#N)NC1=O.O=C(O)C(F)(F)F.O=C(O)C(F)(F)F.O=C(O)C(F)(F)F.O=C(O)C(F)(F)F", 0.25]
]}

Answer for every listed entry: what is its MIC? The entries follow.
1. Cc1nc(-c2ccc(CSSCCC(F)(F)F)cc2)ncc1C(=O)N[C@@H](CCN)C(=O)N(C)[C@@H]1C(=O)N[C@@H](C)C(=O)N[C@H](C(=O)NCC#N)Cc2ccc(OCCN)c(c2)-c2cc1ccc2OCCN.O=C(O)C(F)(F)F.O=C(O)C(F)(F)F.O=C(O)C(F)(F)F.O=C(O)C(F)(F)F
2. Cc1nc(C2CCC3(CC2)CC3)ncc1C(=O)N[C@@H](CCN)C(=O)N(C)[C@@H]1C(=O)N[C@@H](C)C(=O)N[C@H](C(=O)NCC#N)Cc2ccc(OCCN)c(c2)-c2cc1ccc2OCCN.O=C(O)C(F)(F)F.O=C(O)C(F)(F)F.O=C(O)C(F)(F)F.O=C(O)C(F)(F)F
3. Cc1cc(-c2ncc(C(=O)N[C@@H](CCN)C(=O)N(C)[C@@H]3C(=O)N[C@@H](C)C(=O)N[C@H](C(=O)NCC#N)Cc4ccc(OCCN)c(c4)-c4cc3ccc4OCCN)c(C)n2)ccc1CSSC(C)(C)C.O=C(O)C(F)(F)F.O=C(O)C(F)(F)F.O=C(O)C(F)(F)F.O=C(O)C(F)(F)F
4. Cc1nc(-c2ccc(C(C)(C)C)cc2)ncc1C(=O)N[C@@H](CCN)C(=O)N(C)[C@@H]1C(=O)N[C@@H](C)C(=O)N[C@H](C(=O)OCC#N)Cc2ccc(OCCN)c(c2)-c2cc1ccc2OCCN.O=C(O)C(F)(F)F.O=C(O)C(F)(F)F.O=C(O)C(F)(F)F.O=C(O)C(F)(F)F

Reply |
0.25
2
0.125
0.125
